Overview of reported IC50 across a group of compounds:
- Experimental system: CYP2J2-R117E (Homo sapiens, UniProt P51589, R117E)
- Sequence (P51589 whole entry R117E): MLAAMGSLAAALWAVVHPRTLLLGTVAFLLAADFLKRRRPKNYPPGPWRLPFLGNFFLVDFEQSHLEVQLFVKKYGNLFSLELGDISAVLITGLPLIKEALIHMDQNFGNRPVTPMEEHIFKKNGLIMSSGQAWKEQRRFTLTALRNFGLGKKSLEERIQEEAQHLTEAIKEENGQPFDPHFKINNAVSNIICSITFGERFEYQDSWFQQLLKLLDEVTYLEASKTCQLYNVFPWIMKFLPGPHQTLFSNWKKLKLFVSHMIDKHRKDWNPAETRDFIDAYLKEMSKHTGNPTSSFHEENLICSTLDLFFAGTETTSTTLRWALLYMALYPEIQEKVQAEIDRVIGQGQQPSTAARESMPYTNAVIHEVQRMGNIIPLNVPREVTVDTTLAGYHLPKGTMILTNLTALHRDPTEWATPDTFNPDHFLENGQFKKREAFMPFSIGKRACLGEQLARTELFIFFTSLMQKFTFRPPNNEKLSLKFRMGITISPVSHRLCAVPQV
- Experiment summary: biochemical
Endpoint label: IC50 (nM)

mol_smiles=CC(C)(C)c1ccc(CCCCN2CCC(C(O)(c3ccccc3)c3ccccc3)CC2)cc1 experimental_system="CYP2J2-R117E (Homo sapiens, UniProt P51589, R117E)" endpoint_value=2100
mol_smiles=CCCc1ccc(CCCCN2CCC(C(O)(c3ccccc3)c3ccccc3)CC2)cc1 experimental_system="CYP2J2-R117E (Homo sapiens, UniProt P51589, R117E)" endpoint_value=2900

* * *

- Experimental system: CYP2J2-R117K (Homo sapiens, UniProt P51589, R117K)
- Sequence (P51589 whole entry R117K): as the sequence (P51589 whole entry R117E) above, with E117K counted along it
- Experiment summary: biochemical
Each entry below lists one item and its recorded IC50 value.
Endpoint label: IC50 (µM)

mol_smiles=CC(C)(C)c1ccc(CCCCN2CCC(C(O)(c3ccccc3)c3ccccc3)CC2)cc1 endpoint_label=IC50 display_unit=µM endpoint_value=8.6
mol_smiles=CCCc1ccc(C(=O)CCCN2CCC(C(O)(c3ccccc3)c3ccccc3)CC2)cc1 endpoint_label=IC50 display_unit=µM endpoint_value=1.1
mol_smiles=CCCc1ccc(CCCCN2CCC(C(O)(c3ccccc3)c3ccccc3)CC2)cc1 endpoint_label=IC50 display_unit=µM endpoint_value=13.2
